# METHOD: Pharmacokinetics of caffeic acid derivatives after oral administration of the FLJ-FF herb couple
# Parameters: species or system rats
# CONDITION CONTEXT: rat, in vivo
VALUE TYPE: Cmax (ng/mL)
Express the result in ng/mL but write the number alone.

Sample O=C(/C=C/c1ccc(O)c(O)c1)O[C@@H]1C[C@](O)(C(=O)O)C[C@@H](OC(=O)/C=C/c2ccc(O)c(O)c2)[C@H]1O — what was its Cmax? 70.5

Again, but for O=C(/C=C/c1ccc(O)c(O)c1)O[C@@H]1C[C@](O)(C(=O)O)C[C@@H](O)[C@H]1O 2500

Again, but for O=C(C=Cc1ccc(O)c(O)c1)OC1CC(O)(C(=O)O)CC(O)C1O (centres unmarked) 575

Again, but for O=C(C=Cc1ccc(O)c(O)c1)OC1C(O)CC(O)(C(=O)O)CC1O (centres unmarked) 950

Again, but for O=C(C=Cc1ccc(O)c(O)c1)OC1CC(O)(C(=O)O)CC(O)C1OC(=O)C=Cc1ccc(O)c(O)c1 (centres unmarked) 66.7

* * *

Would you kindly list AUC(0-inf) for each of these compounds?
# METHOD: Pharmacokinetics of caffeic acid derivatives after oral administration of the FLJ-FF herb couple
# Design: species or system rats
# CONDITION CONTEXT: rat, in vivo
Express the result in ng·h/mL but write the number alone.

Sample O=C(/C=C/c1ccc(O)c(O)c1)O[C@@H]1C[C@](O)(C(=O)O)C[C@@H](OC(=O)/C=C/c2ccc(O)c(O)c2)[C@H]1O [3,5-dicaffeoylquinic acid] — what was its AUC(0-inf)? 54.2

Again, but for O=C(/C=C/c1ccc(O)c(O)c1)O[C@@H]1C[C@](O)(C(=O)O)C[C@@H](O)[C@H]1O [Chlorogenic acid] 3160

Again, but for O=C(C=Cc1ccc(O)c(O)c1)OC1CC(O)(C(=O)O)CC(O)C1OC(=O)C=Cc1ccc(O)c(O)c1 (centres unmarked) [3,4-dicaffeoylquinic acid] 213

Again, but for O=C(C=Cc1ccc(O)c(O)c1)OC1CC(O)(C(=O)O)CC(O)C1O (centres unmarked) [Neochlorogenic acid] 715

Again, but for O=C(C=Cc1ccc(O)c(O)c1)OC1C(O)CC(O)(C(=O)O)CC1O (centres unmarked) [Cryptochlorogenic acid, cryptochlorogenic acid] 726

* * *

# METHOD: Pharmacokinetics of caffeic acid derivatives after oral administration of the FLJ-FF herb couple
# Parameters: species or system rats
# CONDITION CONTEXT: rat, in vivo
VALUE TYPE: MRT last (h)
Express the result in h but write the number alone.

Sample O=C(C=Cc1ccc(O)c(O)c1)OC1CC(O)(C(=O)O)CC(O)C1OC(=O)C=Cc1ccc(O)c(O)c1 (centres unmarked) — what was its MRT last? 7.6

Again, but for O=C(C=Cc1ccc(O)c(O)c1)OC1CC(O)(C(=O)O)CC(O)C1O (centres unmarked) 5.3

Again, but for O=C(C=Cc1ccc(O)c(O)c1)OC1C(O)CC(O)(C(=O)O)CC1O (centres unmarked) 4.84

Again, but for O=C(/C=C/c1ccc(O)c(O)c1)O[C@@H]1C[C@](O)(C(=O)O)C[C@@H](OC(=O)/C=C/c2ccc(O)c(O)c2)[C@H]1O 6.39

Again, but for O=C(/C=C/c1ccc(O)c(O)c1)O[C@@H]1C[C@](O)(C(=O)O)C[C@@H](O)[C@H]1O 4.74
